These entries and their values trace back to patent US12377104B1.

experiment: Resmetirom exposure parameters by dose, quartile and body weight; format: in vivo, human; details: human, in vivo, oral, 80 mg; 100-<110 kg; read-out: AUCtau,ss Geometric Mean
value kind: AUC (ng·h/mL)

sample_smiles=CC(C)c1cc(Oc2c(Cl)cc(-n3nc(C#N)c(=O)[nH]c3=O)cc2Cl)n[nH]c1=O value_kind=AUC unit_spec=ng·h/mL val=4370

====

experiment: Resmetirom exposure parameters by dose, quartile and body weight; assay type: in vivo, human; conditions: human, in vivo, oral, 100 mg; <80 kg; read-out: Cmax,ss Geometric Mean
value kind: Cmax (ng/mL)

compound="CC(C)c1cc(Oc2c(Cl)cc(-n3nc(C#N)c(=O)[nH]c3=O)cc2Cl)n[nH]c1=O [Resmetirom]" val=1120

====

Experiment: Resmetirom exposure parameters by dose, quartile and body weight
Type: in vivo, human
Settings: human, in vivo, oral, 80 mg; <80 kg; read-out: Cmax,ss Geometric Mean
Experimental: Various body weight cutoffs for dosing were evaluated.
value kind: Cmax (ng/mL)

sample_smiles=CC(C)c1cc(Oc2c(Cl)cc(-n3nc(C#N)c(=O)[nH]c3=O)cc2Cl)n[nH]c1=O value_kind=Cmax val=1120

====

experiment: Resmetirom exposure parameters by dose, quartile and body weight; format: in vivo, human; settings: human, in vivo, oral, 100 mg; <80 kg; read-out: Cmax,ss Median
value kind: Cmax

compound="CC(C)c1cc(Oc2c(Cl)cc(-n3nc(C#N)c(=O)[nH]c3=O)cc2Cl)n[nH]c1=O [Resmetirom]" val="1370 ng/mL"

====

assay: Resmetirom exposure parameters by dose, quartile and body weight; type: in vivo, human; settings: human, in vivo, oral, 80 mg; ≥110 kg; read-out: Cmax,ss Mean
value kind: Cmax (ng/mL)

sample_smiles=CC(C)c1cc(Oc2c(Cl)cc(-n3nc(C#N)c(=O)[nH]c3=O)cc2Cl)n[nH]c1=O unit_spec=ng/mL val=520

====

experiment: Resmetirom exposure parameters by dose, quartile and body weight; format: in vivo, human; details: human, in vivo, oral, 100 mg; ≥110 kg; read-out: AUCtau,ss Median
value kind: AUC (ng·h/mL)

sample_smiles=CC(C)c1cc(Oc2c(Cl)cc(-n3nc(C#N)c(=O)[nH]c3=O)cc2Cl)n[nH]c1=O unit_spec=ng·h/mL val=3900

====

assay: Resmetirom exposure parameters by dose, quartile and body weight; format: in vivo, human; details: human, in vivo, oral, 100 mg; 100-<110 kg; read-out: Cmax,ss Mean
value kind: Cmax (ng/mL)

sample_smiles=CC(C)c1cc(Oc2c(Cl)cc(-n3nc(C#N)c(=O)[nH]c3=O)cc2Cl)n[nH]c1=O unit_spec=ng/mL val=958

====

Experiment: Resmetirom exposure parameters by dose, quartile and body weight
Assay type: in vivo, human
Conditions: human, in vivo, oral, 80 mg; <80 kg; read-out: AUCtau,ss Mean
Experimental: Various body weight cutoffs for dosing were evaluated.
value kind: AUC (ng·h/mL)

sample_smiles=CC(C)c1cc(Oc2c(Cl)cc(-n3nc(C#N)c(=O)[nH]c3=O)cc2Cl)n[nH]c1=O val=9230

====

assay: Resmetirom exposure parameters by dose, quartile and body weight; format: in vivo, human; settings: human, in vivo, oral, 80 mg; 90-<100 kg; read-out: Cmax,ss Geometric Mean
value kind: Cmax

sample_smiles=CC(C)c1cc(Oc2c(Cl)cc(-n3nc(C#N)c(=O)[nH]c3=O)cc2Cl)n[nH]c1=O val="745 ng/mL"
